Target: T1, Active phosphorylated His6-tagged ERK2 R133K (rat (p-0033 says mouse)), P63086
T1 chain: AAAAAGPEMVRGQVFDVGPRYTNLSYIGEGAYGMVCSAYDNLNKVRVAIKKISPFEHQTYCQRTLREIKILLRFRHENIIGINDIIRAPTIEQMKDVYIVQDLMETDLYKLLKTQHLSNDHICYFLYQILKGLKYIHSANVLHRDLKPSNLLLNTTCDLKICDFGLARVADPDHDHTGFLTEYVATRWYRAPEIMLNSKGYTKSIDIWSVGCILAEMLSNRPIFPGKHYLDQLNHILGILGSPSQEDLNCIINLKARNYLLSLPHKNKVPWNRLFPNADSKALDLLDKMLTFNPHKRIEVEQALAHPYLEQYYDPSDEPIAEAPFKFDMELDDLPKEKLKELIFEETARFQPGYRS
Conditions: modification not given; phosphorylated (active form; sites not given)
Ends that are not written are not given here.
MEASURED ATTRIBUTE: pIC50
Friendly reminder that pIC50 comes from taking -log10 of the concentration in mol/L.

Any idea what pIC50 was measured for ARRKPVLPALTINP (not fully specified (some residues, N-terminus)) [MAP2K2] ?
4.54
